Give cytotoxicity at 70.5 h for every item shown.
assay: Human HepG2 cell viability assay in 384 well format; assay type: toxicity, cell-based; set-up: dose 125 nL, time 70.5 hour; concentration not given beside the values; settings: HepG2 cells, read-out: Inhibition
Give bare numbers, in %.

> print(dat)
                                   compound      measured.attribute  assay.result
1  CN(C)C(C(=O)N1CC(Oc2ccccc2F)C1)c1ccccc1F (stereo not drawn)  cytotoxicity at 70.5 h          12.3
2     CC(C)Nc1ncnc2c1CCN(C(=O)Cc1ccccn1)CC2  cytotoxicity at 70.5 h          26.6

Return reported cytotoxicity at 70.5 h values for all items listed beneath this line.
1. CC1=C(C(=O)N(C)Cc2noc3c2CCCC3)C(C)NC(=O)N1 (stereo not drawn)
2. CCN(c1ccc(C(=O)NCCCN2CCCCC2)cc1)S(=O)(=O)CC
3. COC1CCCN(c2nc(C)nc3c2CCN(Cc2ccco2)CC3)C1 (stereo not drawn)

1: -0.0225; 2: -26.7; 3: 8.06
